assay: reduction of polyQ htt aggregates in cells – imaging, exon1htt(103Q)mCFP cells, high-content imaging, primary screen (AID 483); conditions: exon1htt(103Q)mCFP cell line, aggregate imaging, at 2 µM; stronger effect = higher value;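 also: compound exposure lasted 3 days before fixation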
test-readout: inhibition of aggregation (%)
State just the number; it will be interpreted in %.

Before answering, review these 4 worked examples.
>>> df
                                   compound               test_readout  measured
0          CSc1ccc(C(=O)C(C)(C)N2CCOCC2)cc1  inhibition of aggregation     -13.1
1  CN(C)CCN=Cc1c(O)n(-c2cccc3ccccc23)c(=O)[nH]c1=O  inhibition of aggregation      -6.8
2  COC(=O)c1cncn1C(C)c1ccccc1 (stereo unspecified)  inhibition of aggregation     -10.9
3   CCn1nc(-c2ccccc2)nc2c(=O)n(C)c(=O)nc1-2  inhibition of aggregation      -8.2

### Prompt # query: inhibition of aggregation of entry CCC(C(=O)N1CCC2(CC1)OCCO2)c1ccccc1 (stereo unspecified)
### Response 18.1

### Prompt # query: inhibition of aggregation of entry Cc1cc(NC(=O)COC(=O)c2c(C)nn(Cc3ccccc3)c2Cl)no1
### Response -4.8

====

experiment: blockers of RIG-like receptor reporter activation – cell-based, Sendai virus stimulus, luciferase, 10K MLSCN set, TLR/RLR signaling modifier project, primary screen (AID 602276); conditions: HEK293 RL24 IRF3 luciferase reporter, at 10 µM, stronger effect = higher value;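 also: firefly luciferase from ISG56 promoter only with Renilla not read in this screen; 0% = Sendai virus plus DMSO and 100% = medium plus DMSO without virus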
test-readout: inhibition (%)
State just the number; it will be interpreted in %.

Before answering, review these 3 worked examples.
>>> df
                                   molecule  unit_of_measure  measured
0           Cc1cc(C)c(C(=O)CN2CCOCC2)c(C)c1                %      13.2
1  CC(C)N(CCC(C(N)=O)(c1ccccc1)c1ccccn1)C(C)C (stereo not drawn)                %      6.44
2               O=C(O)c1nonc1-c1nonc1C(=O)O                %      17.8

### Prompt # query: inhibition of entry Cc1ccccc1NC1=NCCCS1
### Response 0.817

### Prompt # query: inhibition of entry CC(=NCc1cccnc1)c1c(O)n(Cc2ccccc2)c(=O)[nH]c1=O
### Response 9.01

### Prompt # query: inhibition of entry Cc1ccc(C2SCC(=O)Nc3c2c(=O)[nH]n3C2CCOC(C)(C)C2)cc1 (stereo not drawn)
### Response 18

### Prompt # query: inhibition of entry CC(C)(C)C(O)C(Oc1ccc(Cl)cc1)n1cncn1 (stereo not drawn)
### Response 15.5

====

experiment: endothelial E-selectin expression blockers – imaging, HUVEC, immunofluorescence, MLSMR starter and 10KST1 sets, primary screen (AID 487); conditions: HUVEC TNFalpha-induced E-selectin immunofluorescence imaging, at 2 µM; measured here: cell number, toxicity;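 also: 100% = median nuclei count of all wells on the same plate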
test-readout: nuclei count (%)
State just the number; it will be interpreted in %.

               compound  test_readout  unit_of_measure  measured
0  CNCCc1c[nH]c2ccccc12  nuclei count                %       127

### Prompt # query: nuclei count of entry OCCOCC#CCN1CCOCC1
### Response 137

### Prompt # query: nuclei count of entry COC(=O)C(O)(c1c[nH]c2ccccc12)C(F)(F)F (stereo not drawn)
### Response 112

### Prompt # query: nuclei count of entry Cc1cc(N2C(=O)C3CCCN3C2c2cccc(Cl)c2)no1 (stereo not drawn)
### Response 91.4

### Prompt # query: nuclei count of entry C[N+]1(C)CCc2cc3c(cc2[C@H]1[C@@H]1OC(=O)c2c1ccc1c2OCO1)OCO3
### Response 109

====

assay: TLR3 IRF3 reporter activation blockers – cell-based, poly I:C stimulus, luciferase, 10K MLSCN set, primary screen (AID 602277); conditions: HEK293-TLR3 RL24 IRF3 luciferase reporter, at 10 µM
The source made the active and inactive calls.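 The calls were made as follows: active = inhibition of the reporter signal at or above 50%; inactive = inhibition below 50%.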
Choose the fitting class; nothing outside active, inactive is accepted.

# example entries with known answers
In [3]: df
Out[3]:
                                   compound  classification
0  CCCCCCC(N)CC(=O)O (configuration not stated)        inactive
1  Cc1ccc(C)c(C2(O)CC(C)N(C)CC2C)c1 (configuration not stated)          active
2  CCOc1ccc(-n2c(O)c(C=NCCN(CC)CC)c(=O)[nH]c2=O)cc1        inactive
3  CCOc1c(P(=S)(N(C)C)N(C)C)c(C)nn1-c1ccccc1        inactive
4  Cc1cc(NC(=O)COC(=O)c2c(C)nn(Cc3ccccc3)c2Cl)no1        inactive

### Prompt Which outcome was assigned to CC#CP(=O)(OCC)C(O)(c1ccccc1)C(F)(F)F (configuration not stated) in this test?
### Response inactive

### Prompt Which outcome was assigned to COCCOC(=O)C1=C(N)Oc2c(c(=O)oc3ccccc23)C1c1ccncc1 (configuration not stated) in this test?
### Response inactive

### Prompt Which outcome was assigned to Cc1ccc(-n2c(O)c(C=NCCN3CCOCC3)c(=O)[nH]c2=O)cc1 in this test?
### Response inactive

### Prompt Which outcome was assigned to C[C@H]1CCCC(=O)CCC/C=C/c2cc(O)cc(O)c2C(=O)O1 in this test?
### Response inactive

### Prompt Which outcome was assigned to NCCc1ccc(O)cc1 in this test?
### Response inactive

### Prompt Which outcome was assigned to COc1ccc(CC[n+]2cc(/N=C(\C)[O-])on2)cc1OC in this test?
### Response inactive

### Prompt Which outcome was assigned to O=c1[nH]c(=O)n(Cc2ccccc2)c(O)c1C=NCCCO in this test?
### Response inactive

====

assay: inhibitors of TNFa-induced NFkB p65 translocation, primary screen, imaging, HUVEC, MLSMR starter and 10KST1 sets (AID 438); conditions: HUVEC TNFa-induced p65 nuclear translocation; measured here: nuclei count (cytotoxicity indicator), at 2.08 µM;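 also: compound added about 3h40 before a 20 min TNFalpha stimulation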
Recorded cell count, one value per entry.
Output: the number by itself.

Before answering, review these 3 worked examples.
In [3]: df
Out[3]:
                             compound  measured
0          COc1ccc(C(=O)N2CCCC2=O)cc1       667
1   Cc1ccc(O)c(CN2CCN(c3ccccc3)CC2)c1       307
2  Cn1c(O)c(C=NCc2ccco2)c(=O)n(C)c1=O       327

Attention now turns to another entry.
### Prompt # query: cell count of entry Clc1ccc(COC(Cn2ccnc2)c2ccc(Cl)cc2Cl)cc1 (centres undefined)
### Response 571

====

Recorded z-score, one value per entry.
experiment: Primary imaging screen for DUSP6 inhibitors that restore phospho-Erk in transfected HeLa cells, chemical complementation (AID 609); conditions: HeLa MKP-3 transfected, phospho-Erk imaging KS statistic; measured here: cell density z-score; at 10 µM

Before answering, review these 6 worked examples.
>>> df
                                   compound  measured
0               CC(=O)CC(C)(C)n1c[n+](C)nn1     0.619
1  CCOc1ccccc1-n1c(O)c(C=Nc2c(C)n(C)n(-c3ccccc3)c2=O)c(=O)[nH]c1=O      1.53
2  CC(C)[C@@]1(NC(=O)[C@@H]2C=C3c4cccc5[nH]cc(c45)C[C@H]3N(C)C2)O[C@@]2(O)[C@@H]3CCCN3C(=O)[C@H](Cc3ccccc3)N2C1=O     0.234
3  O=c1[nH]c(=O)n(Cc2ccccc2)c(O)c1C=NCCN1CCOCC1     0.666
4  COc1ccc(C2SCC(=O)Nc3c2c(=O)[nH]n3C2CCCCC2)cc1 (stereo not given)     0.845
5  CC(=C1C(=O)c2ccccc2C1=O)N1CCN(CCN=Cc2c(O)n(C)c(=O)n(C)c2=O)CC1    -0.147

### Prompt # query: z-score of entry CCCCOCCCn1c(N)c(C(=O)OC(C)COC)c2nc3ccccc3nc21 (stereo not given)
### Response 0.315

### Prompt # query: z-score of entry CCN(CC)CCCNC(=O)c1c(O)c2ccccc2n(Cc2ccccc2)c1=O
### Response 3.05

### Prompt # query: z-score of entry COP(=O)(OC)C(O)C(Cl)(Cl)Cl (stereo not given)
### Response -0.465

### Prompt # query: z-score of entry NCC1(c2ccc3c(c2)OCCO3)CCCC1
### Response -0.692

====

assay: blockers of RIG-like receptor reporter activation – cell-based, Sendai virus stimulus, luciferase, 10K MLSCN set, TLR/RLR signaling modifier project, primary screen (AID 602276); settings: HEK293 RL24 IRF3 luciferase reporter, at 10 µM, stronger effect = higher value;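 also: firefly luciferase from ISG56 promoter only with Renilla not read in this screen; 0% = Sendai virus plus DMSO and 100% = medium plus DMSO without virus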
Entry flag: Met if inhibition reaches 20%; Not met if it does not.

>>> df
                                   molecule  classification
0  CC(=NCc1ccc2c(c1)OCO2)c1c(O)n(C)c(=O)n(C)c1=O             Met
1  O=C(c1ccc2nc(-c3ccco3)c(-c3ccco3)nc2c1)N1CCC2(CC1)OCCO2         Not met
2  C[N+]1(C)[C@@H]2CC(OC(=O)[C@H](CO)c3ccccc3)C[C@H]1[C@@H]1O[C@@H]12 (stereo partly specified)         Not met
3  CCOC(=O)C1CCCCC12C(C#N)=C(N)Oc1n[nH]c(C)c12 (stereo unspecified)         Not met
4  CCC(C)NC(=O)c1c(N)n(CC2CCCO2)c2nc3ccccc3nc12 (stereo unspecified)         Not met

### Prompt Please check the record COc1ccc(C2NCc3ccc4c(c3-n3cccc32)OCO4)cc1O (stereo unspecified) and state if its inhibition is at or above 20%.
### Response Met
